test system: HepG2; assay: GSK_TCMDC: Percent inhibition of human HepG2 cell line. Test compounds present at 10uM.; format: functional
For each record, write down the corresponding Inhibition.
Write the number in % without appending the unit.

Note Inhibition for the molecule shown: `O=C(Nc1ccc(Cl)cc1)c1ccc(S(=O)(=O)NCC2CCN(CC3CCCCC3)CC2)cc1.O=C(O)C(F)(F)F` 40

Kindly indicate its recorded Inhibition. Item: `COc1ccc(NC(=O)Nc2ccc(C)c(-c3ccc(C(=O)Nc4ccncc4)cc3)c2)cc1` 39

Check the records and state Inhibition for `O=C(O)c1ccc(-c2c[nH]c3ncc(-c4ccc(Cl)cc4)cc23)cc1` 39

Name the recorded Inhibition of the molecule listed here: `O=[N+]([O-])c1c(O)nc2c(c1O)CCC2` 9

# return recorded Inhibition for entry CC(Oc1c(C2CCN(CCCCNC(=O)c3ccc(-c4ccc(C#N)cc4)cc3)CC2)ccc2c1CCCC2)C(N)=O (stereo unspecified) 41

Tell me Inhibition reported for `CNC(=O)Cc1ccc(C(=O)Nc2cccc(-c3cccc(-c4nc5cc(C(F)(F)F)ccc5[nH]4)c3)c2)cc1` 40
